System: MS2 coat protein
Assay: apparent KD of MS2 coat protein; designed switch direction (-1 OFF switch, 1 ON switch): -1; higher = weaker reporter binding
Details: input ligand: FMN 200 uM
apparent KD of MS2 coat protein below 70 nM gives Condition not met; apparent KD of MS2 coat protein at or above it gives Condition met.

Query block: Item CACCUGAACACAGGAUAUCCUACAUGAGGAUCACCCAUGUAAUAAAUGAGAAUUUCGAAUGUAAUGGAGAAGGGUGGAUAAGGC [Ostracism 89 - Jieux - Exclusion NG 2] (Eterna round: R96, puzzle: Exclusion NG 2) with apparent KD of MS2 coat protein of 70 nM or above?
Result block: Condition met

Query block: Also need UCUCGCGGGCAAGGAUAUCCUACAUUGUUCUGGCCCGGGCAUGUUACAUGAGGAUCACCCAUGUGGGAGAAGGUGCGCCAGGGC [Design 35] (Eterna round: R96, puzzle: Exclusion NG 2) , thanks.
Result block: Condition not met

Query block: Also need ACCAAUCAUGUAGGAUAUGCGUGGCGAAGCUAUGCAGAAGGACAUGAGGAUCACCCAUGUGCUUCCGUCUGCGUACAGACGGUA [Mat - Exclusion NG 1 - Mod of JL - D17] (Eterna round: R96, puzzle: Exclusion NG 1) , thanks.
Result block: Condition not met

Query block: Also need UAUAUGUCAGGAUAUCGAUUGGAAUGGAAUUUAGUUUUGGUUGAGAAGGGACAUGAGGAUCACCCAUGUUUUUC [EX4 #62] (Eterna round: R97, puzzle: Exclusion 4) , thanks.
Result block: Condition met

Query block: Also need GUACUGACAGGAUAUACAUGAGGAUCACCCAUGUCCUUAAGCUGACAAAAGUCAGCGAGUAGAAGGGUCUGUAC [Omei Ex3 Model Bachelor's Dilema v4] (Eterna round: R97, puzzle: Exclusion 3) , thanks.
Result block: Condition met

Query block: Also need CCACGACAUGAGGAUCACCCAUGUGAGGAUAUGGCCUGAAAAGCGUGAGCAGAAUCAAUCAGAAGGCGCGUGGG [salish99_ex1_r4_060] (Eterna round: R97, puzzle: Exclusion 1) , thanks.
Result block: Condition met

Query block: Also need ACAGUGUUAGGAUAUGUGAGAGUUAGUCUCGACUAGUCGAAGCAGAAGGAACAUGAGGAUCACCCAUGUAGAUC [EX4 #78] (Eterna round: R97, puzzle: Exclusion 4) , thanks.
Result block: Condition met

Query block: Also need AGGUCACAUGAGGAUCACCCAUGUCAGGAUAUCUACAUUGAAGCCUCGGCUUCAAUGUAGAGAAGGGAUAAUUA [E1/8-B2] (Eterna round: R97, puzzle: Exclusion 1) , thanks.
Result block: Condition not met

Query block: Also need UACAUGAGGAUCACCCAUGUUUUGUCGUGUAUGGUAUUUAUCUAGGAUAUCAAUCAAUUUAUUUAUGAGAAGGAGAAUAUUAAU [JMF's solution 49] (Eterna round: R96, puzzle: Exclusion NG 3) , thanks.
Result block: Condition not met

Query block: Also need GUCGUGCAGCUUUGCUGUACGAGUACAUGAGGAUCACCCAUGUAGGAUAUGGUACGCUUUGCGUGCUAGAAGGAUAUGUGUAGA [salish99_ExNG3_r04_502] (Eterna round: R96, puzzle: Exclusion NG 3) , thanks.
Result block: Condition not met

Query block: Also need GCAAGAAUAGGAUAUACAACAUGCCAGCUUCUUUACAACGCACAUGAGGAUCACCCAUGUAGAAGGGUUCUCUA [Exclusion-2-#13] (Eterna round: R97, puzzle: Exclusion 2) , thanks.
Result block: Condition met

Query block: Also need CGGAUGUUAGGAUAUUAGUAGUAGUCAGAAUAGACUAUUACUGAGAAGGAACAUGAGGAUCACCCAUGUUUCCG [Eli x4 4.19] (Eterna round: R97, puzzle: Exclusion 4) , thanks.
Result block: Condition not met

Query block: Also need AAUACAAGCUAUUGAUCCCACAUGAGGAUCACCCAUGUAGGAGGCCGUGAGACCUCCUUUACGAUAGCUCGUCUUAU [Sensor-V1 #52] (Eterna round: R97, puzzle: Sensor, turn-off variant 1) , thanks.
Result block: Condition met

Query block: Also need CCCACAAGCUUUUUGCUCGACAUGAGGAUCACCCAUGUAAAAUGGGUUAUAUAUAUAUGAAACAUAUAUAUAUACCU [-21.6, -47.5 kcal, A 35%] (Eterna round: R97, puzzle: Sensor, turn-off variant 1) , thanks.
Result block: Condition not met

Query block: Also need AAGCAACAUGAGGAUCACCCAUGUUAGGAUAUACGCAUGCAUGCAUGCAUGCAUGCAAGUAGAAGGAACCAUGC [Design #15] (Eterna round: R97, puzzle: Exclusion 1) , thanks.
Result block: Condition not met

###

Test system: MS2 coat protein
Assay: apparent KD of MS2 coat protein; higher = weaker reporter binding
Settings: Eterna round: R107; input ligand: theophylline 20 uM
apparent KD of MS2 coat protein below 70 nM gives Condition not met; apparent KD of MS2 coat protein at or above it gives Condition met.

Query block: Item GAGUAGAGGACGGCCGCCACUAAACAUGAGGAUCACCCAUGUCGUGAUCCGUUACCUAGGGUAGAUAGGACCGGGUCAUGUAGUC [Exclusion Tryptophan B GF 17] with apparent KD of MS2 coat protein of 70 nM or above?
Result block: Condition not met

Query block: Also need CUCUGAGUGAGAAAUCACUCAGAGGCGGAUACCAGCGAGGUCCAUCGCCCUUGGCAGCCGAACAUGAGGAUCACCCAUGUCGGUA [#1 Same State - Theophylline A Attempt #21 (HarryS)] , thanks.
Result block: Condition not met

Query block: Also need AAAUGUGUAAAAGCUUUAACACCCUGAGAAGGAGCGCAAUAAAUUGCAGGUAGGUCGCUCAGACAUGAGGAUCACCCAUGUAACC [Atrabeor] , thanks.
Result block: Condition not met

Query block: Also need GGGUACAUCGCGGCCGCCACUUAUGUAAAUACAUGAGGAUCACCCAUGUCGAUGGAGACAUCGGAAAGGACCGGGUGAUGUACCG , thanks.
Result block: Condition met

Query block: Also need AAGGGAGAGUCAGAUACCAGAGUAAGAUGGCAUGGUAAUUACAUGAGGAUCACCCAUGUAUUCCCUUGGCAGCUGACCCUACGUU [Exclusion Theophylline B GF 19] , thanks.
Result block: Condition not met

Query block: Also need GCGGACAUGAGGAUCACCCAUGUAAAUCCUCGAGGACCGGUACGGCCGCCACUCGAACGAGUGGCGCGCGAGCGCGCGCUCGCGC [aBa] , thanks.
Result block: Condition not met

Query block: Also need AACAUGAGGAUCACCCAUGUCCCAUGUGAACGAGGACCGGUACGGCCGCCACUCGACUGAGGCGGCACAUGAGGAUCACCCACAU [whbob_SS_trypto A_2s12] , thanks.
Result block: Condition met

Query block: Also need AGCGGCUCGAAAGAGUCGCACUCAUGUGAAGGAGCGCCCGUAAGGGCAGGUAGGUCGCACAUGAGGAUCACCCAUGUACCUUCUA [MAT - Exclusion Arginine A - Mod of Eli - D20] , thanks.
Result block: Condition met

Query block: Also need GCGUGGUCUGCGGCCGCCACUCAAGGAGCUACAUAGCUCCUAGACAUGAGGAUCACCCAUGUCGCGAGGACCGGGUAGAUUCUCC [Same State Typptophan B GF10] , thanks.
Result block: Condition met

Query block: Also need AAGGACAUGAGGAUCACCCAUGUAGAGGAGCGAGGACCGGUACGGCCGCCACUCGGUGACAUUCGAUAAUGCCGAAUAAGACAUC [theeternabot_sameState_MS2_Trp_A_47] , thanks.
Result block: Condition not met

Query block: Also need UGUACCUAGUCGGCCGCCACUCAAUAAUGAGAGGAUCACCCUCAUAAACGAGUCAAAGACUCGAUGAGGACCGGGACUAGGUACU [Palindromic MS2 2 #AlternativeMS2 #Palindrome #StaticStem] , thanks.
Result block: Condition met

Query block: Also need UAACAUGAGGAUCACCCAUGUUUGAAGGAACGAGGACCGGUACGGCCGCCACUCGACGAGUGGAUGAGAAGUGGGAUUGUGUGCU [Same State Trp A GF8] , thanks.
Result block: Condition not met

Query block: Also need GCUAGGUCUACGGCCGCCACUAGACGUGGGUAAGACAUGAGGAUCACCCAUGUACUACAGGCGCAUAGGACCGGGUAGACCUAGC [SSTB NP+V+V2 #11 Same Structure] , thanks.
Result block: Condition met

Query block: Also need AACAUGAGGAUCACCCAUGUUGUAAGGGAAGGAGCGCCUAAUCAGGCAGGUAGGUCGCCCAACAUGAGGAUCACCCAUGUUGUAU [Exclusion Arginine A 2] , thanks.
Result block: Condition met

Query block: Also need AUCCUUAAUAGGGUAAAUGGAUAAAGUGAUACCAGUCAAAUACAAGACCCUUGGCAGCACAAGGACAUGAGGAUCACCCAUGUCA [Same State Theophylline A GF21] , thanks.
Result block: Condition not met

Query block: Also need UUAUAUACUACGGCCGCCACUGAACAUGAGGAUCACCCAUGUAAUGUUCAGAUUUUUUUUUUUUACAGGACCGGGUAGAAUUAAA [Tryptophan B 2] , thanks.
Result block: Condition met

Where do these numbers come from? They come from the supplement of paper PMC9170038.
